Data provenance: patent US20210032365A1

Reported KD 5(+)/7(+) values for a set of binders
- tgt: T1, human C1s (human, UniProt P09871 16-688)
- T1 construct: Analyte in the Biacore assays; also called hC1s; serum-derived human C1s (CompTech)
- T1 sequence: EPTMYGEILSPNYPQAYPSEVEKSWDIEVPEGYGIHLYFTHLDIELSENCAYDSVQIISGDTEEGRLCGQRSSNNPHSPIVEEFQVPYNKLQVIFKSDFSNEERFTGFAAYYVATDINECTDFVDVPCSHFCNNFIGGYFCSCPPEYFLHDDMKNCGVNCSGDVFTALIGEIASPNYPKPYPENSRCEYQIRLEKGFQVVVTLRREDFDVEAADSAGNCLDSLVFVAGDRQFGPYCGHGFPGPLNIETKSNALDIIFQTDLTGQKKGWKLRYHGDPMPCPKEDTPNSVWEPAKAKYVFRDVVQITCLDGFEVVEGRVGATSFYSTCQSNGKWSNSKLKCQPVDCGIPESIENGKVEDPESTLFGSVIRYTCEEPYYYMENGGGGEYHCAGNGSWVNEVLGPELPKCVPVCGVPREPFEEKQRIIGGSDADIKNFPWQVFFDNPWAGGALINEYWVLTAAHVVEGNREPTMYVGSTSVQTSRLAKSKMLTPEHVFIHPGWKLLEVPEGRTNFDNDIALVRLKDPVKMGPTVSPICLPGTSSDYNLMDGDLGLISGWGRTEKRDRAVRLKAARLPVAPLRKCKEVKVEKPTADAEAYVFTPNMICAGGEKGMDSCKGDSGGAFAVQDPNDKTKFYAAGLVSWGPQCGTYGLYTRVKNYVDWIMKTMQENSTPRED
- assay: SPR; KD at pH 5.8 (1.2 mM Ca) over KD at pH 7.4 (1.2 mM Ca)
measured quantity: KD 5(+)/7(+)

INSERT INTO results (binder, quantitative_readout) VALUES
  ('C1_IPN92H0261-SG4GK/IPN93L0091-SK1 (antibody, human IgG4 S228P, kappa, name in Kabat numbering, V domains shown, Substitutions from IPN009VH2 / IPN009VK3, Kabat numbering; also called IPN92H0261/IPN93L0091) VH: EVMLVESGGGLVKPGGSLRLSCAASGFTFSNYAMSWVRQAPGKGLEWVATISSGGSHTYELDSVKGRFTISRDNSKDTLYLQMNSLRAEDTALYYCARLFTKHAMDYWGQGTLVTVSS VL: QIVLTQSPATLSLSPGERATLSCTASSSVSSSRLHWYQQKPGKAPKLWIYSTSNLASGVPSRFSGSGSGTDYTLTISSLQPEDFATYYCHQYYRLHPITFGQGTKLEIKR', 16.3),
  ('C1_IPN92H0091-SG4GK/IPN93L0024-SK1 (antibody, human IgG4 S228P, kappa, name in Kabat numbering, V domains shown, Substitutions from IPN009VH2, Kabat numbering; also called IPN92H0091/IPN93L0024) VH: EVMLVESGGGLVKPGGSLRLSCAASGFTFSNYAKSWVRQAPGKGLEWVATISSGGSHTYYLDSVKGRFTISRDNSKDTLYLQMNSLRAEDTALYYCARLFTGHAMDYWGQGTLVTVSS VL: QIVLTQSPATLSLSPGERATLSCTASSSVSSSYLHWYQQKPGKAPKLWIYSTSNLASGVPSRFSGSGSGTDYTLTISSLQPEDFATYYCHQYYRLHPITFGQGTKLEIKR', 4.5),
  ('C1_IPN92H0193-SG4GK/IPN93L0024-SK1 (antibody, human IgG4 S228P, kappa, name in Kabat numbering, V domains shown, Substitutions from IPN009VH2, Kabat numbering; also called IPN92H0193/IPN93L0024) VH: EVMLVESGGGLVKPGGSLRLSCAASGFTFSNYAMSWVRQAPGKGLEWVATISSGGSHTYYLDSVKDRFTISRDNSKDTLYLQMNSLRAEDTALYYCARLFTGHAMDYWGQGTLVTVSS VL: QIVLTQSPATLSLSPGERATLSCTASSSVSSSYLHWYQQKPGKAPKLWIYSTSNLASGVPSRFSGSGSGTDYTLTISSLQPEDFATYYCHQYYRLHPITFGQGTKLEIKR', 6.2);
